Tested on: SNB-75 CNS
Experiment: NCI-60 one-dose screen, 48 h (100 = growth as untreated, 0 = no growth, -100 = all killed)
Conditions: 10 µM unless noted
Compounds without any hit were thinned out: in the full panel of roughly 83,000, 20% have a hit.
readout_type: growth (%)
Response body: numeric value in %, unit text excluded.

query: Output growth of CC(C)OC(=S)[S-].[Au+].c1ccc([PH+](c2ccccc2)c2ccccc2)cc1
result: 18.5

query: Output growth of O=C(N/N=C/c1ccc([N+](=O)[O-])o1)c1cc([N+](=O)[O-])cc([N+](=O)[O-])c1O
result: 83

query: Output growth of COc1ccc2c(c1)NC1=C(C(=O)OC1)C2c1cc(OC)c(OC)c(OC)c1 (stereo unspecified)
result: 45.7

query: Output growth of COc1cc(CNCCc2ccc(Cl)cc2)cc(OC)c1O
result: 44.6

query: Output growth of COC1=CC(=O)OC(CCc2ccc3c(c2)OCO3)C1 (stereo unspecified)
result: 96.3

query: Output growth of CC1COC(=O)C1 (stereo unspecified)
result: 81.9

---

Tested on: HL-60(TB) leukemia
Assay: NCI-60 one-dose screen, 48 h (100 = growth as untreated, 0 = no growth, -100 = all killed)
Conditions: 10 µM unless noted
About 83,000 compounds went through this panel and 20% of them were active in at least one assay; those are over-represented in the sample as a whole.
For each record, write down the corresponding growth.
Response body: numeric value in %, unit text excluded.

query: Output growth of CCOc1ccccc1C(=O)N1CCN(c2cc(Cl)cc(Cl)c2)CC1
result: -59

query: Output growth of Cc1cc2nc3c4cc(C=O)ccc4n(CCN(C)C)c3nc2cc1C
result: 16.9

query: Output growth of Nc1nc(N)c(-c2ccc(Cl)c(Cl)c2)c(/C=C/c2ccc(S(=O)(=O)F)cc2)n1
result: 91.9

query: Output growth of COc1ccc(-c2cc(=O)n(-c3nc4ccccc4[nH]3)[nH]2)cc1OC
result: 35.4

query: Output growth of CCCCCCCCCCCCCCCC(=O)OC[C@@]1(O)C[C@@]23CC[C@@H]4C(C)(C)CCC[C@@]4(C)[C@@H]2CC[C@H]1C3
result: 73.3

query: Output growth of Fc1ccccc1-c1cnn2cc(-c3ccccc3)cnc12
result: 98.6

query: Output growth of Cc1cccc2c1S/C(=C/c1ccc([N+](=O)[O-])cc1)C2=O
result: 101

query: Output growth of N=c1c2c(-c3ccccc3)c(-c3ccccc3)n(Cc3ccccc3)c2ncn1CCCO
result: 39

query: Output growth of CCCc1cc(CCC)n2nc(N)nc2n1
result: 105

query: Output growth of COc1ccc(C2C(c3nn[nH]n3)=C(N)Oc3c2ccc2ccccc32)cc1 (stereo not given)
result: 31.9

---

Tested on: HL-60(TB) leukemia
Assay: NCI-60 one-dose screen, 48 h (100 = growth as untreated, 0 = no growth, -100 = all killed)
Conditions: 10 µM unless noted
Compounds without any hit were thinned out: in the full panel of roughly 83,000, 20% have a hit.
readout_type: growth (%)
Response body: numeric value in %, unit text excluded.

query: Provide measured growth on HL-60(TB) leukemia for CN1C(=O)/C(=C/c2ccc(C(=O)Nc3ncc(Cc4cccc(Cl)c4)s3)cc2)SC1=S please.
result: 88.2

query: Provide measured growth on HL-60(TB) leukemia for CC[C@@]12C=CCN3CC[C@]4(c5cc(NC(=O)COc6cc(OCC(=O)Nc7cc8c(cc7OC)N(C)[C@H]7[C@@](O)(C(=O)OC)[C@H](OC(C)=O)[C@]9(CC)C=CCN%10CC[C@]87[C@@H]%109)cc7oc(-c8ccccc8)cc(=O)c67)c(OC)cc5N(C)[C@@H]4[C@](O)(C(=O)OC)[C@H]1OC(C)=O)[C@H]32 please.
result: 88.2

query: Provide measured growth on HL-60(TB) leukemia for COc1cc(N)c2ncccc2c1Cl please.
result: 85.6

query: Provide measured growth on HL-60(TB) leukemia for OC1CSSC1Cn1cnc2c(Nc3ccc(F)c(Cl)c3)ncnc21 (stereo not drawn) please.
result: 45.8

query: Provide measured growth on HL-60(TB) leukemia for CCN1CC(CCN2CCOCC2)C(C(c2ccccc2)c2ccccc2)C1=O (stereo not drawn) please.
result: 113

query: Provide measured growth on HL-60(TB) leukemia for COc1cc(C(=O)/C=C/c2c(C(F)(F)F)nc3sccn23)cc(OC)c1OC please.
result: -20

query: Provide measured growth on HL-60(TB) leukemia for CCOC(=O)c1cnn(CC(O)CC)c1NC(=O)NCc1ccccc1C(F)(F)F (stereo not drawn) please.
result: 76.4

query: Provide measured growth on HL-60(TB) leukemia for O=C(O)c1cn(C2CC2)c2cc(N3CCN(C(=O)N/N=C/c4ccccc4)CC3)c(F)cc2c1=O please.
result: 100

Just for reference, PubChem BioAssay (NCI) is where these values come from.
